These entries and their values trace back to ChEMBL document CHEMBL1201862.

- System: MDA-MB-435
- Measurement description: NCI tumour cell line growth inhibition, 48 h
Activity calls are given as the source filed them. No stated cut-off is given here; in the data, active = GI50 up to about 1.1 µM and inactive = higher.
Just give me one of these, please: 1 for active, -1 for inactive

O=C1/C(=C\c2cccc(Oc3ccccc3)c2)S(=O)(=O)C(c2ccccc2)N1c1cc(Cl)ccc1Cl (centres undefined): -1
COc1ccc(C2SCC(=O)N2c2ccc(-n3c(-c4ccccc4)nc4ccccc4c3=O)cc2)cc1OC (centres undefined): -1
FC(F)(F)c1ccc2c(c1)nc(Cc1ccc(Cl)cc1)n2CC1CCCN2CCCCC12 (centres undefined): -1
Cc1cccc2nc(-c3ccccc3)cc(=O)n12: -1
NCCCNCCCCN1CCOC1=O: -1
CCCCCCCCCc1cc(O)c(O)cc1CCCCCCCCC: -1
COc1ccc2[nH]c3c([N+](=O)[O-])ccc(NCCN(C)C)c3/c(=N/CCN(C)C)c2c1: -1
O=C(N[C@@H](Cc1ccccc1)B(O)O)[C@H](Cc1cccc2ccccc12)NC(=O)N1CCOCC1: 1
Cc1cn(C2CC(O)C(Cn3nncc3Cn3cnc4c(N)ncnc43)O2)c(=O)[nH]c1=O (centres undefined): -1
CCN(C)c1nc(N(C)CC)c2nc(N(C)CC)nc(N(C)CC)c2n1: -1

-- ask Hello, I am checking results. What call was entered for `COC(=O)c1ccc(/C=C/c2cc(O)ccc2O)cc1` ?
-- reply -1

-- ask Moving on to `COc1ccc(Cc2nc3cc(C(F)(F)F)ccc3n2CCCN(C)C)cc1`
-- reply -1

-- ask Moving on to COC1/C=C/C(C)C(C(C)C(OC)C(C)CCC(=O)C(C)C(CCC(=O)O)OC)OC(=O)/C=C/C=C(\C)CC(OC)CC2=CC(=O)O[C@@H](C(C)C(OC)CC(OC)/C=C/C(C)C(OC)C1)[C@H]2O (some centres undefined)
-- reply 1

-- ask Moving on to CC12CCCCC1=[N+]([O-])C(C)(C)N2O (centres undefined)
-- reply -1

-- ask Moving on to `O=C(/C=C(\Nc1ccccc1O)c1ccc(Br)cc1)C(Cl)(Cl)Cl`
-- reply -1

-- ask Moving on to `CN(C)c1nc(NN)c2c(-c3ccccc3)c(-c3ccccc3)oc2n1`
-- reply -1

-- ask Moving on to `COc1cc2c(c(OC)c1OC)-c1ccc(OC)c(=O)cc1[C@@H](NC(C)=O)CC2`
-- reply 1

-- ask Moving on to `C/C(=N\Nc1ccc2ccccc2n1)c1ccccc1O`
-- reply -1

-- ask Moving on to COc1ccc(N2C(=O)C3c4[nH]c5ccccc5c4C4CCCCCCCC4C3C2=O)cc1 (centres undefined)
-- reply -1

###

- Test system: LXFL 529
- Measurement description: NCI tumour cell line growth inhibition, 48 h
Active and inactive are the calls of the source. Rule as the data show it: active = GI50 up to about 1.1 µM and inactive = higher.
Just give me one of these, please: active, inactive

Below, 4 compounds whose answers are already recorded.
COc1ccc(/C=C\c2cc(OC)c(OC)c(OC)c2)c(O)c1O [COMBRETASTATIN A-1]: active
CC(=O)O[C@H]1C=CC23OC(=O)[C@]1(C)[C@H]2[C@H](C(=O)O)C12CC(=O)[C@@](CO)(CC[C@H]13)C2: inactive
O=C(/C=C/c1ccc(OCCCOc2ccc(/C=C/C(=O)c3ccc(Cl)cc3)cc2)cc1)c1ccc(Cl)cc1: inactive
COc1ccc2c(c1OC)C(=O)c1cnccc1C2=O: inactive

-- ask Hello, I am checking results. What call was entered for CCOP(=O)(OCC)C(C(=O)OC)C(=O)C(=O)Nc1cccc([N+](=O)[O-])c1 (centres undefined) ?
-- reply inactive

-- ask Moving on to `Cc1ccc(C(c2c(O)c3ccccc3n(-c3ccccc3)c2=O)c2c(O)c3ccccc3n(-c3ccccc3)c2=O)cc1`
-- reply inactive

-- ask Moving on to `[N-]=[N+]=N/C1=C/CCCCC(=O)C1`
-- reply inactive

-- ask Moving on to `COC(=O)/C=C(C)/C=C/c1c(C)c(C(C)=O)c(C)n1C`
-- reply inactive

-- ask Moving on to `Cc1cccc(C)c1NC(=O)/C(Cl)=C(/Cl)C(=O)O`
-- reply inactive

###

- Tested on: 786-0
- Measurement description: NCI tumour cell line growth inhibition, 48 h
Activity calls are given as the source filed them. Rule as the data show it: active = GI50 up to about 1.1 µM and inactive = higher.
Measured property: GI50

Examples with their reported GI50 follow.
Cc1ccccc1/N=C/N(C)C: 70.3 µM (inactive)
CC1(C)Cc2nc3c(cc2C(=O)C1/C=N/C(C#N)=C(\N)C#N)C(=O)C(/C=N/C(C#N)=C(\N)C#N)C(C)(C)C3 (stereo not given): 1.84 µM (inactive)
COC(=O)C1OC(SCCN)C(O)C(O)C1O (stereo not given): > 100 µM (inactive)
COC(=O)C1(NC(=O)C(Cc2ccccc2)N(C(=O)OC(C)(C)C)C(=O)OC(C)(C)C)CCCC1 (stereo not given): > 10 µM (inactive)

-- ask May I ask what GI50 has been recorded for `[O-]/[N+](=C\c1ccccc1OC(=S)S)c1ccc(Cl)cc1` ?
-- reply 14.6 µM (inactive)

###

- Tested on: COLO 205
- Measurement description: NCI tumour cell line growth inhibition, 48 h
Activity calls are given as the source filed them. No stated cut-off is given here; in the data, active = GI50 up to about 1.1 µM and inactive = higher.
Just give me one of these, please: active, inactive

-- ask Hello, I am checking results. What call was entered for `CN(C)c1ccc(C(=C(c2ccc(N(C)C)cc2)c2ccc(N(C)C)cc2)c2ccc(N(C)C)cc2)cc1` ?
-- reply active

-- ask Moving on to CC1=C(C(=O)NCC(C)O)CC(C(=O)NCC(C)O)=C(C)N1 (stereo not given)
-- reply inactive

-- ask Moving on to `c1ccc(-c2c3c(nc4c2CC[C@H]4NC2=NCCN2)[C@@H](NC2=NCCN2)CC3)cc1`
-- reply inactive

-- ask Moving on to `CNc1ccc([N+](=O)[O-])cc1C(=O)N1CCC[C@H]1CO`
-- reply inactive

-- ask Moving on to `COC(=O)Nc1nc(=O)c2cc(OC)c(OC)cc2[nH]1`
-- reply inactive

###

- Test system: CAKI-1
- Measurement description: NCI tumour cell line growth inhibition, 48 h
The source made the active and inactive calls. Cut-off read from the data, not from the text of the source: active = GI50 up to about 1.1 µM and inactive = higher.
Recorded GI50 for the following molecules

NC(Cc1c[nH]c(I)n1)C(=O)O (centres undefined): 29.3 µM (inactive)
CCCCCCCCCCCCCCCCCC(=O)OCC(COC1OC(COP(=O)(O)O)C(O)C(O)C1O)OC(=O)CCCCCCCCCCCCCCCCC (centres undefined): 9.73 µM (inactive)
CCCCc1ccc(Nc2nc3ncnc-3c[nH]2)cc1: 19.4 µM (inactive)
FC1=C2C3CCC(C3)C2C1(F)F (centres undefined): > 100 µM (inactive)
COC(=O)C1C(/C=C/c2ccoc2)ON2CCC[C@@H]12 (some centres undefined): > 100 µM (inactive)

-- ask May I ask what GI50 has been recorded for `COc1ccc(CNc2nc3c(NC(C)=O)cc(C(F)(F)F)cc3nc2-c2ccccc2)cc1OC` ?
-- reply 31.6 µM (inactive)

-- ask Moving on to `O=C(NCCCl)Nc1cccnc1`
-- reply 21.5 µM (inactive)

-- ask Moving on to N#C[BH2-][n+]1cn(C2CC(OP(=O)(O)OCC3OC(n4ccc(N)nc4=O)CC3O)C(CO)O2)c2nc(N)[nH]c(=O)c21 (centres undefined)
-- reply > 100 µM (inactive)

-- ask Moving on to `CCC/C(Cl)=N/OC(=O)Nc1cc(C(F)(F)F)ccc1OC`
-- reply 4.78 µM (inactive)

-- ask Moving on to O=C(c1ccccc1)c1c(CC(O)c2ccncc2)n(C(=O)c2ccccc2)c2ccccc12 (centres undefined)
-- reply 22.3 µM (inactive)

###

- Tested on: K562
- Measurement description: NCI tumour cell line growth inhibition, 48 h
Where a name gives a salt, the structure may show the parent alone. Activity calls are given as the source filed them. No stated cut-off is given here; in the data, active = GI50 up to about 1.1 µM and inactive = higher.
Just give me one of these, please: True for active, False for inactive

Below, 8 molecules whose answers are already recorded.
CN1CCCS/C1=C1/SC(=S)N(c2ccccc2)C1=O: False
Cc1ccnc2nc(-c3ccc(F)cc3)cc(O)c12: False
C=C1C(=O)OC2CC3(C)C=CC(=O)C(=C)C3CC12 (stereo not given): False
COC(=O)C1=Cc2c(cc(OC)c(OC)c2OC)[C@H](c2ccc(OC)c(OC)c2OC)C1C(=O)OC (stereo not given in full): False
Cc1ccc(S(=O)OC2C3CC4CC(C3)CC2C4)cc1 (stereo not given): False
CC1=CC(C)(C)NN1C1=NS(=O)(=O)c2ccccc2N1C: False
CC1OC(O[C@H]2C3C=CO[C@@H](OC4OC(CO)C(O)C(O)C4O)C3[C@@]3(COC(=O)/C=C/c4ccc(O)cc4)O[C@@H]23)C(O)C(O)C1O (stereo not given in full): False
CN(C(=O)c1ccco1)C(=S)N1CCN(c2ccccn2)CC1: False

-- ask Hello, I am checking results. What call was entered for CC(C#N)(c1ccccc1)N(CCc1ccccc1)C(=O)Oc1ccccc1 (stereo not given) ?
-- reply False

-- ask Moving on to `[O-][n+]1c2cc3c(cc2[n+]([O-])c2c(O)cccc21)CN(CCN1CCOCC1)C3`
-- reply False

-- ask Moving on to `COc1cc2c(c(OC)c1OC)-c1ccc(SC)c(=O)cc1[C@@H](NCc1ccccc1[N+](=O)[O-])CC2`
-- reply True

-- ask Moving on to COc1cc(C(c2cc(OC)c(OC)c(OC)c2)N2C(=O)CCC2C(=O)O)cc(OC)c1OC (stereo not given)
-- reply False

-- ask Moving on to COC1O[C@H]2[C@H]3[C@@H]1[C@@H](OS(=O)(=O)c1ccc(C)cc1)C(=O)N3C[C@H]2O (stereo not given in full)
-- reply False

-- ask Moving on to `CCOC(=O)c1nc2ccccc2nc1Nc1ccc(F)cc1`
-- reply False

-- ask Moving on to CC[C@@]1(O)C(=O)OCc2c1cc1n(c2=O)Cc2cc3c(CN(C)C)c(O)ccc3nc2-1 [TOPOTECAN HYDROCHLORIDE]
-- reply True

-- ask Moving on to CNC1C(OC2C(OC3C(O)C(O)C(O)C(O)C3O)OC(C)C2(O)CO)OC(CO)C(O)C1O.N=C(N)N.NC(=O)O (stereo not given)
-- reply False

-- ask Moving on to COC1CC(O[C@H]2CC[C@@]3(C)[C@@H](CC[C@]4(O)[C@@H]3CC[C@]3(C)[C@@H](C(C)=O)[C@H](OC(=O)CC(C)C)[C@@H](OC(=O)c5ccccc5)[C@@]34O)C2)OC(C)C1OC1CC(OC)C(OC2OC(C)C(O)C(OC)C2O)C(C)O1 (stereo not given in full)
-- reply False

-- ask Moving on to CC12CCCCC1=[N+]([O-])C(C)(C)N2O (stereo not given)
-- reply False

-- ask Moving on to `Cc1ccc(C2=CC(=O)/C(=C\C(=O)c3ccc(Cl)cc3)O2)cc1`
-- reply False

-- ask Moving on to CN1Cc2ccccc2C2(COc3ccccc3C2=O)C1 (stereo not given)
-- reply False

-- ask Moving on to O=C(O)C1CSC2(CCCN(Cc3ccccc3)C2)N1 (stereo not given)
-- reply False

-- ask Moving on to `CCN(CCN(CC)C(=O)Nc1ccccc1)C(=O)Nc1ccccc1`
-- reply False

-- ask Moving on to `COC(=O)Nc1nc(=O)c2cc(OC)c(OC)cc2[nH]1`
-- reply False

-- ask Moving on to O=C(CC(C(=O)c1ccsc1)c1cccs1)c1cccs1 (stereo not given)
-- reply False

-- ask Moving on to NC(=S)N/N=C1\CCCCC1C(O)(C(F)(F)Cl)C(F)(F)Cl (stereo not given)
-- reply False

-- ask Moving on to `O=C1/C(=C/c2cc3c(=O)c4ccccc4sc3s2)NC(=S)N1c1ccccc1`
-- reply False

-- ask Moving on to `C[C@]12CC[C@H]3[C@@H](CCC4=CC(=O)CC[C@@H]43)[C@@H]1CC[C@]2(O)C(N)=O`
-- reply False
